Target: T1, MUT-7FL/MUT-8CTD chain MUT-7FL;MUT-8CTD (Caenorhabditis elegans;Caenorhabditis …, UniProt P34607;Q19672 1-910;322-578, |)
T1 sequence 1: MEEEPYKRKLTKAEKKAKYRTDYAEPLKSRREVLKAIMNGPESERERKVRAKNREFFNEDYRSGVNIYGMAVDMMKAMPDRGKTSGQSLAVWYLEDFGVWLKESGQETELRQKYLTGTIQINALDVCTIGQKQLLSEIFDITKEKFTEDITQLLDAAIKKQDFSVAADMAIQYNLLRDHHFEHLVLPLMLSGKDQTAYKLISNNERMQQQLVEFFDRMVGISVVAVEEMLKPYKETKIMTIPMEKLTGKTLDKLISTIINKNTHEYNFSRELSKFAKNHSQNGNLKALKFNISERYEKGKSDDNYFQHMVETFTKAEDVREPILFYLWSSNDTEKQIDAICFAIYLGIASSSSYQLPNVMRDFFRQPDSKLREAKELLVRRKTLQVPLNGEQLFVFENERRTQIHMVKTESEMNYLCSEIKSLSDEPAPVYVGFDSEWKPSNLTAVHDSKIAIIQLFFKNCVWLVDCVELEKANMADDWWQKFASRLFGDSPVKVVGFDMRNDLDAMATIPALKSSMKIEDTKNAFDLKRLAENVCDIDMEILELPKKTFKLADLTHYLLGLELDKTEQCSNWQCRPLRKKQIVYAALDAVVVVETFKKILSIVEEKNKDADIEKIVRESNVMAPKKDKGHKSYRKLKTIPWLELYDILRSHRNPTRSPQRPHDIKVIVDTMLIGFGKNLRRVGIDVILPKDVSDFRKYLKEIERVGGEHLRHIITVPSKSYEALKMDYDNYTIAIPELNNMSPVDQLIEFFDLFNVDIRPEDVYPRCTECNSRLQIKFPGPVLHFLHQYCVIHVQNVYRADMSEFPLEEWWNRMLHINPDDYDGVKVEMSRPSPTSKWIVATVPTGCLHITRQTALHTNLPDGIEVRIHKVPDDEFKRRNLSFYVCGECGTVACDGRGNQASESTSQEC
T1 sequence 2: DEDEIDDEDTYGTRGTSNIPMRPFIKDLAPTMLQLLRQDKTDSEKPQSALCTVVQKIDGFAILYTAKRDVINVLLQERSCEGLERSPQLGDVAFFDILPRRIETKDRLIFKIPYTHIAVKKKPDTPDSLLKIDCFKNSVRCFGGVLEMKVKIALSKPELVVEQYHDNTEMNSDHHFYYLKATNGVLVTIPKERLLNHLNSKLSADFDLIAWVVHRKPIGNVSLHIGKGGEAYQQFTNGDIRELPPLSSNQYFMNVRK
Assay: fluorescence polarisation; 50 mM KCl, 5 mM EDTA; FP: 50 nM RNA, 20 mM HEPES/NaOH pH 7.5, 50 mM KCl, 5 mM EDTA (C. elegans) or 250 mM NaCl (human EXD3 and MUT-7 D435A), room temperature, 30 min
Settings: protein: recombinant;recombinant; copies: 1;1; label: 5'-FAM; single strand
metric: Kd (nM)
A number alone suffices; assume nM.

Prompt: Please supply the value of reported Kd for the item GUUGAUUGAAGAGUUC (ssRNA) [16-mer ssRNA]
Completion: 170
